Assay: yeast display, Sf9 membrane polyspecificity reagent, FACS + sequencing; frameworks hold sequencing errors
parameterMeasured: polyreactivity (PSR sort gate)

// worked examples, polyreactivity (PSR sort gate) included
Name the recorded polyreactivity (PSR sort gate) of the item QVQLVESGGGLVQAGGSLRLSCAASGSTFHWYDMGWYRPAPGKERELVAGINSSGDGTYYADSVKGRFTISRDNAKNTVYLQMNSLKPEDTAVYYCAAPWWYYGVPYQTNKYDYWGQGTQVTVSS in your answer.
low polyreactivity

Name the recorded polyreactivity (PSR sort gate) of the item QVQLVESGGGLVQAGGSLRLSCAASGITFSSYAMGWYRQAPGKERELVAGITRRGGITYYADSVKGRFTISRDNAKNTVYLQMNSLKPEDTAVYYCAATHRFRTGSPDGGYGYWGQGTQVTVSS in your answer.
high polyreactivity

Name the recorded polyreactivity (PSR sort gate) of the item QVQLVESGGGLVQAGGSLRLSCAASGRTFYIYAMGWYRQAPGKERELVATIDSTGSTNYADSVKGRFTISRDNAKNTVYLQMNSLKPEDTAVYYCNADDWVGRSLRYDYWGQGTQVTVSS in your answer.
low polyreactivity

Name the recorded polyreactivity (PSR sort gate) of the item QVQILESGVCLVQARGSLRLSCAASGRTFRSNAMGWYRQAPGKERDLVAAITSSGGRTYYADSVKGRFTISRDNAKNTVYLQMNILKPEDTAVYYCNAVLRQYYRAYDYWGQGTQGTVSS in your answer.
high polyreactivity

Name the recorded polyreactivity (PSR sort gate) of the item QVQLVESGGGLVQAGGSLRLSCAASGSIFVWYVMGWSRPAAGKERELVAAITWSAARTYYADSVKGRFTISRDNAKNTVYLQMNSLKPEDTAVYYCAADHVSYQPSSRIFDYWGQGTQVTVSS in your answer.
low polyreactivity

Name the recorded polyreactivity (PSR sort gate) of the item QVQLVESGGGLVQAGGSLRLSCAASGFSFLQYVMGWYSQAPGKERELFAAITSGGSTYYADSVKGRFTISRDNAKNTVYLQMNSLKPDDTAVYYCATDVADNTFYALYGSDYWGQCTQVTVSS in your answer.
low polyreactivity

Lab note: each sequence below needs its polyreactivity (PSR sort gate) filled in.
1. QVQLVESGGGLVQAGGSLRLSCAASGSIFSYYVMGWYRQAPGTERELVAAISYSGGRTYYADSVKGRFTISRDNAKNTVYLQMNSLKPEDTAVYYCAASRRVGEVSYYYWGQGTQVTVSS
2. QVQLVESGGGLVQAGGSLRFSCAASGRIFGDYAMGWYRLAPGKERELVAAISWSDGSTYYADSVKGRFTISRDNAKNTVYLQMNSLKPEDTAVYYCAASYWDTEPGYREYDYWGQGTQVTVSS
3. QVQLVESGGCLVQAGGSLRLSCAASGSTFSRYAMGWYRQAPGKERELVAAISWGGNTYYADSVKGRFTISRDNAKNTVYLQMNSLKPEDTAGYYCNADYSSRGANYDYWGQGTQVTVSS
4. QVQLVESGGGLVQAGGSLRLSCAASGFNFRVNAMGWYRQAPGKERELVAAITKSGGSTYYADSVKGRFTISRDNAKNTVYLQMNSLKPEDTAVYYCNVVWQYSTYVRYNYWGQGTQVTVSS
5. QVQLVESGGGLVQAGGSLRLSCDASGRTFLRNTMGWYRQAPGKERELVAAISRSGATTYYADSVKGRFTISRDNAKNTVYLQMNTLKPEDTADYYCAAAYRGREVEYNSWGQGTQVTVSS
6. QVQLVESGGGLVQAGGSLRISCAASGSIFYRNVMGWYRQAPGKERELVAAISSSGGRTHYADSVKGRFTISRDNAKNTVYLQMNSLKPEDTAVYYCTALYAPQEYGRRFPNDYWGQGTQVTVSS
7. QVQLVESGGGLVQAGGSLRLSCAASGLTFTRYDMGWYRQAPGKERELVASISQSGTSTHYADSVKGRFTISRDNAKNTVYLQMNSLKPEDTAVYYCAADYVSRYYVKWYRGFDYWGQGTQVTVSS

1. high polyreactivity
2. low polyreactivity
3. high polyreactivity
4. low polyreactivity
5. high polyreactivity
6. high polyreactivity
7. low polyreactivity

* * *

Assay: yeast display, Sf9 membrane polyspecificity reagent, FACS + sequencing; frameworks hold sequencing errors
parameterMeasured: polyreactivity (PSR sort gate)

Name the recorded polyreactivity (PSR sort gate) of the item QVQLVESGGGLVQAGGSLRLSCAASGNTFGRYAMGWSRQAPGKEREFVAAIRWRGATTYYADSVKRRFTISRDNAKNPVDLQMNSMKPEDTAVYYCAAYYWGQGTGFDYWGQGTQVTVSS in your answer.
high polyreactivity

Name the recorded polyreactivity (PSR sort gate) of the item QVQLVESGGGLVQAGGSLRLSCAASGIIFRWYGMGWYRQAPGKERELVATITSGGRTNYADSVKGRFTISRDNAKNTVYLQMNSLKPEDTAVYYCAAEKWTVRRFNPYTYYRYDYWGQGTQVTVSS in your answer.
low polyreactivity

Name the recorded polyreactivity (PSR sort gate) of the item QVQRVETGGGLVQAGGSLRLSSAASVLTFKWYAMGWYRQSPGKERELVAAISRDGSTYYGDSVKVRFTISRDNAKNTVYLQMNSLKPEDTAVYYCAADIWPSSLLADEYDYWGQGTQVTVSS in your answer.
high polyreactivity

Name the recorded polyreactivity (PSR sort gate) of the item QVQLVESGGCLVQAGGSLRLSCAASGSTFGGNAMGWYRQAPGKERELVAAITIGGRTNYADSVKGRFTISRDNAKNTVYLQMNSLKPEDTAVYYCAKDRDQWQDYWGQGSQVTVSS in your answer.
low polyreactivity

Next:
Name the recorded polyreactivity (PSR sort gate) of the item QVQLVESGGGLVQAGGSLRLSCAASGSTFLYNAMGWYRQAPGKERELVAAISTTGARTNYADSVKGRFTISRDNAKNTVYLQMNSLKPEDTAVYYCKDRRGHYWGQGTQVTVSS in your answer.
high polyreactivity

* * *

Assay: yeast display, Sf9 membrane polyspecificity reagent, FACS + sequencing; frameworks hold sequencing errors
parameterMeasured: polyreactivity (PSR sort gate)

Name the recorded polyreactivity (PSR sort gate) of the item QVQLVESGGGLVQAGGSLRLSCAASGRILEYNAMGWYRQAPGKERELVAAITSDGSTNYADSVKGRFTISRDNAKNTVYLQMNSLKPEDTAVYYCNTRYSLYTKYAYYDELDYWGQGTQVTLSS in your answer.
low polyreactivity

Name the recorded polyreactivity (PSR sort gate) of the item QVQLVESGGGLVQAGGSLRLSCADSGGILFNYDMGWYRPAPGKERELVAAISRRGGTTYYADSVKGRFTISRDNAKNTVYLQMNSLKPEDTAVYYCAAYIYYSYYARVGYGDGNGYDYWGQGTQVTVSS in your answer.
high polyreactivity

Name the recorded polyreactivity (PSR sort gate) of the item QVQLVESGGGLVQAGGSLRLTCDASGRIFVHNAMGWYRQAPGKERELVAAISWSGSSTYYADSVKGRFTISRDNAKNSVYLQMNSLKPEDTAVYYCLGQGTQVTVSS in your answer.
low polyreactivity

Name the recorded polyreactivity (PSR sort gate) of the item QVQLVESGGGLVQAGGSLRLICAASGRIFKWYVMGWYRQAPGKERELVAAISRSGDSTNYADSVKGRFTISRDNAKNTVYLQMNSLKPEDTAVYYCAVGYRYLKWVDYWGQGTQVTVSS in your answer.
high polyreactivity

From here, focus on the item given below.
Name the recorded polyreactivity (PSR sort gate) of the item QVQIVESGGGLVQAGGRLRLSFSASGIIFTGNAMGWYRQAPGKERELVAAITSGDTTNYADSVKGRFTISRDNAKNTVYLLMNSLKPEDTAVYYCAKELQVRQAGDYWGQGTQVTVSS in your answer.
low polyreactivity

* * *

Assay: yeast display, Sf9 membrane polyspecificity reagent, FACS + sequencing; frameworks hold sequencing errors
parameterMeasured: polyreactivity (PSR sort gate)

// worked examples, polyreactivity (PSR sort gate) included
Name the recorded polyreactivity (PSR sort gate) of the item QVQLVESGGGLVQAGGSLLLSCSASGRNFRANAMGWYRQAHRKERELVAAITSTGDRTYYADSVKGRFTISRDNAKNTVYLQMNSLKQEDTAVYYCAAENNRYGGYRKYDYWGLGTQVTVSS in your answer.
low polyreactivity

Name the recorded polyreactivity (PSR sort gate) of the item QVQLVESGGGLVQAGGSLRLSCAASGFPFAKNAMGWYRQAPGKERELVAVITSSGGSTYYADSVKGRFTISRDNAKNTVYLQMNCLKPEDTAVYYCNVAYYYRSRSTGYEYWGQGTQVTVSS in your answer.
high polyreactivity

Name the recorded polyreactivity (PSR sort gate) of the item QVQLVESGGGLVQAGGSLRLSCAASGFIFTSYARGWYRQAPGKDRELVAAITRSGASTSYADSVKGRFTISRDNAKNTVYLQMNSLKPEDTAVYYCAAKAPLPRYYVPRYDYWGQGTQVTVSS in your answer.
high polyreactivity

Name the recorded polyreactivity (PSR sort gate) of the item QVQLVESGGGLVQAGRTLRLSCAASGNIFDLNAMGWYRPAPGKERELVAAIDRGGGSTYYADSVKGRFTISRDNATNTVYLHMNSLKTEDTAVYYCSAVDQESNPAGGYWGQGSQVTVSS in your answer.
low polyreactivity

Name the recorded polyreactivity (PSR sort gate) of the item QVQLVESGGGLVQAGGSLRLSCAASGIIFVRYAMGWYRQAPGKERELVAAITRNGGRTYYADSVKGRFTISRDNAKNTVYLQMNSLKPEDTAVYYCAAYPAYPGTLEMDYWGQGTQVTVSS in your answer.
high polyreactivity

Lab note: each sequence below needs its polyreactivity (PSR sort gate) filled in.
1. QVQHVESGGCLVQAGASLRLSCDASGSIFRRNAMGWYRQAPGKERQLVDAITSYGGRTYYADSVKGRFTISRDNAKNTVYFQMNSLKPVDTAVYYCASRYPWGWAMNYWGQGTQVTVSS
2. QVQLVESVGGLVQAGGSLRLSCAASGNIFYSYDMGWYRQAPGKERELVATISYRGTSTNYADSVKGRFTISRDNAKNTVYLQMNSLKPEDTAVYYCASDRGSHFARGSAYDYWGQGTQVTVSS
3. QVQLVESGGGLVQAGGSLRLSCAASGRTFNTYAMGWYRQAPGKERELVAAISSGRRTYYADSVKGRFTISRDNAKNTVYLQMNSLKPEDTAVYYCAKRGRYSYKYDYWGQGTQVTVSS
4. QVQLVESRGGLVQAGGSLRLSCAASGFIFSYYAMGWYRQAPGKERELVAAISGLGGSTYYADSVKGRFTISRDNAKNTVYLQMNSLKPEDTAVYYCAATTLRYYRHGDYWGQGTQVTVSS
5. QVQLVESGGGLVQAGGSLRLSCAASGSTFRYNAMGWYRQAPGKERELVAAISKGGGRTYYADSVKGRFTISRDNAKNTVYLQMNSLKPEDTAVYYCAATYGTGRRSKYGYWGQGTQVTVSS
6. QVQLVESGGGLVQAGGSLSLSCAASGFTFYGNAIGGNRQAPGKERELVASISTYYADSVKGRFTISRDNAKNTVYLQMNSLKPEDTAVYYCAATHYDRTYYVIYDYWGQGTQVTVSS

1: high polyreactivity; 2: low polyreactivity; 3: high polyreactivity; 4: low polyreactivity; 5: high polyreactivity; 6: low polyreactivity
